Measured protein stability index values are reported for all entries that follow.
B1: NCF4 (parent)
chain: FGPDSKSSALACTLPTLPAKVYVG

variants of: B1; assay: protein stability index of a GFP-peptide fusion (GPS, HEK-293T) (PSI 1-6); higher = more stable; conditions: c terminus: a fixed tail appended;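 also: lentivirally expressed fusions sorted by FACS into six bins by GFP to DsRed ratio, PSI derived from sequencing read proportions per bin multiplied by bin number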
measured.property: protein stability index

mutation.code: T16M
value: 1.76
//
mutation.code: T16W
value: 3.26
//
mutation.code: A19C
value: 1.74
//
mutation.code: Y22E
value: 2.85
//
mutation.code: G24S
value: 1.97
//
mutation.code: S8D
value: 2.7
//
mutation.code: A11F
value: 2.4
//
mutation.code: V21S
value: 2.61
//
mutation.code: C12G
value: 2.41
//
mutation.code: P18N
value: 2.24
//
mutation.code: A19D
value: 2.6
//
mutation.code: Y22D
value: 2.83
//
mutation.code: S8A
value: 2.32
//
mutation.code: S5K
value: 2.28
//
mutation.code: L14F
value: 2.25
//
mutation.code: P3H
value: 2.46
//
mutation.code: G24L
value: 2.56
//
mutation.code: P3G
value: 2.07
//
mutation.code: A9V
value: 2.25
//
mutation.code: G2M
value: 1.84
//
mutation.code: L17Q
value: 3.03
//
mutation.code: D4I
value: 2.15
